Entries and their protein stability index values follow.
# assay_protocol: protein stability index of a GFP-peptide fusion (GPS, HEK-293T) (PSI 1-6); higher = more stable;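 further: 24-mer peptide tiles fused after GFP, lentivirally expressed, FACS-sorted into six equal bins by GFP/DsRed ratio, decoded by Illumina sequencing, PSI is the read-weighted mean bin number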
# conditions_used: treatment: DMSO; c terminus: a fixed tail appended
Write the number on its own, no unit after it.

Requested read-out: protein stability index. Entry: RAMKIPFTNDKIINLPVEEFNELL [NFE2L1] 2.87

Also YRRVNELLLSILNPTRQDESIQRI [ZER1] ? 2.46

Also GETGSGDQAGGEGKHITVFKTYIS [MYOZ1] ? 3.97

Also YNNDIDYYAKRNALRAAEVWMDDF [GALNT9] ? 2.96

---
Requested read-out: protein stability index. Entry: REMSKTFIIGELHPDDRPKLNKPP [CYB5A] 3.95
